B1: FERM and PDZ domain-containing protein 4, residues 75 to 154; numbered along this chain, Q14CM0 (parent)
chain: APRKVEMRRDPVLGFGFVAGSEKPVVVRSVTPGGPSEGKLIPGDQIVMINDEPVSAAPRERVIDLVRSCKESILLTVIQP

# Variants of: B1
# Test Details: abundance fitness (aPCA) (normalised: wild type 0, dead -1); higher = more abundant; growth selection in yeast, the domain comes from the species named
# Condition Context: Homo sapiens
Each entry gets 0.0 if its abundance fitness stays under -0.7, and 1.0 if its abundance fitness is -0.7 or above.

Please review the following examples before continuing.
Variant Notation	Group Label
V62L	1.0
I49R	0.0
T76V	1.0
P53W	1.0
E6H	1.0

Now examine the next entry.
Inquiry: Hi, just wondering whether `G16L` shows abundance fitness of -0.7 or higher.
Reply text: 0.0
